# maps each entry to its Kd
- system.under.test: human CA-XII (Homo sapiens, UniProt O43570)
- Construct: purchased Creative BioMart CA12-261H
- Sequence (O43570 25-354): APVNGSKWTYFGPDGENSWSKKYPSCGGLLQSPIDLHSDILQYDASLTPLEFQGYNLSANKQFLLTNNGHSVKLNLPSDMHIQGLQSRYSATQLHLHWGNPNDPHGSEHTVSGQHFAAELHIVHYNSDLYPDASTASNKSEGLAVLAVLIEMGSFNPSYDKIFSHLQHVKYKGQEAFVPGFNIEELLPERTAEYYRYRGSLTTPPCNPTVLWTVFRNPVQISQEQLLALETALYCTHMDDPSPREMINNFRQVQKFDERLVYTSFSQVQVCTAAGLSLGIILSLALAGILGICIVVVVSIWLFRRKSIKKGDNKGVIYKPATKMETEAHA
- assay.info: Surface Plasmon Resonance (SPR) binding kinetics to recombinant human CA-XII (Biacore 8K, single-cycle kinetics, 1:1 binding model)
- condition.summary: Chelated Metal: Lu-175, 25° C., pH 7.4, read-out: CAXII KD

Which Kd value belongs to NS(=O)(=O)c1nnc(NC(=O)C23CC(c4cn(CCNC(=O)[C@@H]5CN(C(=O)CN6CCN(CC(=O)O)CCN(CC(=O)O)CCN(CC(=O)O)CC6)CCN5C(=O)C[C@H](NC(=O)C[C@H](NC(=O)c5ccc(C(F)(F)F)cc5)C(=O)O)C(=O)O)nn4)(C2)C3)s1.[Lu+3] ?
2.5 to 10 nM

Sample CC(CCC(=O)N[C@@H](CC(=O)N[C@@H](CC(=O)N1CCN(C(=O)CN2CCN(CC(=O)O)CCN(CC(=O)O)CCN(CC(=O)O)CC2)C[C@H]1C(=O)NCCn1cc(-c2ccc(C(=O)Nc3nnc(S(N)(=O)=O)s3)cc2Cl)nn1)C(=O)O)C(=O)O)(c1ccc(O)cc1)c1ccc(O)cc1.[Lu+3] — what was its Kd?
> 10 nM

====

Recorded measurements of pKd, one per entry
- system.under.test: human CA-XII (Homo sapiens, UniProt O43570)
- Construct: purchased Creative BioMart CA12-261H
- assay.info: Surface Plasmon Resonance (SPR) binding kinetics to recombinant human CA-XII (Biacore 8K, single-cycle kinetics, 1:1 binding model)
- condition.summary: Chelated Metal: Lu-175, 25° C., pH 7.4, read-out: CAXII KD
pKd: −log10 of the molar value.

NS(=O)(=O)c1nnc(NC(=O)C23CCC(c4cn(CCNC(=O)[C@@H]5CN(C(=O)CN6CCN(CC(=O)O)CCN(CC(=O)O)CCN(CC(=O)O)CC6)CCN5C(=O)CC[C@H](NC(=O)C[C@H](NC(=O)c5coc(C(F)(F)F)n5)C(=O)O)C(=O)O)nn4)(CC2)CC3)s1.[Lu+3] | > 9.00
NS(=O)(=O)c1nnc(NC(=O)C23CC(c4cn(CCNC(=O)[C@@H]5CN(C(=O)CN6CCN(CC(=O)O)CCN(CC(=O)O)CCN(CC(=O)O)CC6)CCN5C(=O)C[C@H](NC(=O)C[C@H](NC(=O)CC5CC6(CCC6)C5)C(=O)O)C(=O)O)nn4)(C2)C3)s1.[Lu+3] | 8.60 to 9.00
CC(CCNC(=O)N1CCC(C(N)=O)(C(=O)NCC(=O)N2CCN(C(=O)CN3CCN(CC(=O)O)CCN(CC(=O)O)CCN(CC(=O)O)CC3)C[C@H]2C(=O)NCCn2cc(C34CC(C(=O)Nc5nnc(S(N)(=O)=O)s5)(C3)C4)nn2)CC1)(c1ccc(O)cc1)c1ccc(O)cc1.[Lu+3] | < 8.00
CC(CCCC(=O)N1CCC(C(N)=O)(C(=O)NCC(=O)NC2(C(=O)NCCn3cc(C45CC(c6cn7nc(S(N)(=O)=O)sc7n6)(C4)C5)nn3)CCN(C(=O)CC[C@H](C(=O)O)N3CCN(CC(=O)O)CCN(CC(=O)O)CCN(CC(=O)O)CC3)CC2)CC1)(c1ccc(O)cc1)c1ccc(O)cc1.[Lu+3] | 8.00 to 8.60
NC(=O)C1(C(=O)NCC(=O)N2CCN(C(=O)CN3CCN(CC(=O)O)CCN(CC(=O)O)CCN(CC(=O)O)CC3)C[C@H]2C(=O)NCCn2cc(C34CC(C(=O)Nc5nnc(S(N)(=O)=O)s5)(C3)C4)nn2)CCN(C(=O)Cn2nc(-c3ccc(O)cc3)c3ccc(O)cc32)CC1.[Lu+3] | < 8.00
NS(=O)(=O)c1nnc(NC(=O)C23CC(c4cn(C[C@H]5CN(C(=O)CN6CCN(CC(=O)O)CCN(CC(=O)O)CCN(CC(=O)O)CC6)CCN5C(=O)[C@@H]5COCCN5C(=O)Cc5n[nH]c6ccccc56)nn4)(C2)C3)s1.[Lu+3] | < 8.00

Now for the compound whose pKd we want.
Quick one: pKd for CC(CCC(=O)N1CCOC[C@H]1C(=O)N[C@@H](CC(=O)N1CCN(C(=O)CN2CCN(CC(=O)O)CCN(CC(=O)O)CCN(CC(=O)O)CC2)C[C@@H]1C(=O)NCCn1cc(C23CC(C(=O)Nc4nnc(S(N)(=O)=O)s4)(C2)C3)nn1)C(N)=O)(c1ccc(O)cc1)c1ccc(O)cc1.[Lu+3] ?
< 8.00

====

// reported Kd for each item listed
- system.under.test: human CA-IX (Homo sapiens)
- Construct: purchased Acro CA9-H82E3
- assay.info: Surface Plasmon Resonance (SPR) binding kinetics to recombinant human CA-IX (Biacore 8K, single-cycle kinetics, 1:1 binding model)
- condition.summary: Chelated Metal: Lu-175; SPR, 25° C., pH 7.4; read-out: CAIX KD

CC(CCC(=O)N[C@@H](CC(=O)N[C@@H](CC(=O)N1CCN(C(=O)CN2CCN(CC(=O)O)CCN(CC(=O)O)CCN(CC(=O)O)CC2)C[C@H]1C(=O)NCCn1cc(C23CCC(C(=O)Nc4nnc(S(N)(=O)=O)s4)(C2)C3)nn1)C(=O)O)C(=O)O)(c1ccc(O)cc1)c1ccc(O)cc1.[Lu+3] | < 1 nM

Could you now consider this next compound?
Entry NS(=O)(=O)c1nnc(NC(=O)C23CC(c4cn(CCNC(=O)[C@@H]5CN(C(=O)CN6CCN(CC(=O)O)CCN(CC(=O)O)CCN(CC(=O)O)CC6)CCN5C(=O)CNC(=O)C5(C(=O)O)CCN(C(=O)Cc6ccc7[nH]ncc7c6)CC5)nn4)(C2)C3)s1.[Lu+3] : reported Kd = ?
2.5 to 10 nM

====

- system.under.test: human CA-XII (Homo sapiens, UniProt O43570)
- Construct: purchased Creative BioMart CA12-261H
- assay.info: Surface Plasmon Resonance (SPR) binding kinetics to recombinant human CA-XII (Biacore 8K, single-cycle kinetics, 1:1 binding model)
- condition.summary: Chelated Metal: Cu (cold), 25° C., pH 7.4, read-out: CAXII KD
- Procedure: G1. Surface Plasmon Resonance Assay Conditions for hCA-IX and hCA-XII Surface Plasmon Resonance (SPR) experiments were conducted on a Biacore 8K instrument (Cytiva, Marlborough, MA) to determine the binding kinetics of the compound to recombinant human CA-IX (Acro, CA9-H82E3) and CA-XII (Creative BioMart, CA12-261H) proteins. […]
Quick reference: Kd of the listed items.

CC(CCCC(=O)N1CCOC[C@H]1C(=O)N[C@@H](CC(=O)N1CCN(C(=O)CN2CCN(CC(=O)O)CCN(CC(=O)O)CC2)C[C@@H]1C(=O)NCCn1cc(C23CC(C(=O)Nc4nnc(S(N)(=O)=O)s4)(C2)C3)nn1)C(=O)O)(c1ccc(O)cc1)c1ccc(O)cc1.[Cu+2] [Compound 126.3] | > 0.01 µM

Data request, read-out Kd, for NS(=O)(=O)c1nnc(NC(=O)C23CC(c4cn(CCNC(=O)[C@@H]5CN(C(=O)CN6CCN(CC(=O)O)CCN(CC(=O)O)CC6)CCN5C(=O)C[C@H](NC(=O)C[C@H](NC(=O)c5ccc(C6CC6)cn5)C(=O)O)C(=O)O)nn4)(C2)C3)s1.[Cu+2] [Compound 126.2]
0.0025 to 0.01 µM

Would you mind telling me what Kd value was observed for CC(CCC(=O)N[C@@H](CC(=O)N[C@@H](CC(=O)N1CCN(C(=O)CN2CCN(CC(=O)O)CCN(CC(=O)O)CC2)C[C@H]1C(=O)NCCn1cc(C23CC(C(=O)Nc4nnc(S(N)(=O)=O)s4)(C2)C3)nn1)C(=O)O)C(=O)O)(c1ccc(O)cc1)c1ccc(O)cc1.[Cu+2] [Compound 126.4] ?
> 0.01 µM

# input compound: CC(CCCC(=O)N1CCC(C(N)=O)(C(=O)NCC(=O)N2CCN(C(=O)CN3CCN(CC(=O)O)CCN(CC(=O)O)CC3)C[C@@H]2C(=O)NCCn2cc(C34CC(C(=O)Nc5nnc(S(N)(=O)=O)s5)(C3)C4)nn2)CC1)(c1ccc(O)cc1)c1ccc(O)cc1.[Cu+2] [Compound 126.1] ; wanted: its Kd
> 0.01 µM

====

- system.under.test: human CA-IX (Homo sapiens, UniProt Q16790)
- Construct: purchased Acro CA9-H82E3
- assay.info: Surface Plasmon Resonance (SPR) binding kinetics to recombinant human CA-IX (Biacore 8K, single-cycle kinetics, 1:1 binding model)
- condition.summary: Chelated Metal: Lu-175; SPR, 25° C., pH 7.4; read-out: CAIX KD
- Procedure: G1. Surface Plasmon Resonance Assay Conditions for hCA-IX and hCA-XII Surface Plasmon Resonance (SPR) experiments were conducted on a Biacore 8K instrument (Cytiva, Marlborough, MA) to determine the binding kinetics of the compound to recombinant human CA-IX (Acro, CA9-H82E3) and CA-XII (Creative BioMart, CA12-261H) proteins. […]
pKd: −log10 of the molar value.
Below, each entry is listed alongside its reported pKd.

Here's what some known entries look like.
CCC(CC)Nc1c(F)c(S(N)(=O)=O)c(F)c(F)c1S(=O)(=O)CCOCc1cn(CCNC(=O)[C@H]2CN(C(=O)CN3CCN(CC(=O)O)CCN(CC(=O)O)CCN(CC(=O)O)CC3)CCN2C(=O)C[C@H](NC(=O)[C@@H]2COCCN2C(=O)CCCc2ccc(O)cc2)C(=O)O)nn1.[Lu+3] | 8.60 to 9.00
CC(CCCC(=O)N1CCOC[C@H]1C(=O)N[C@@H](CC(=O)N1CCN(C(=O)CN2CCN(CC(=O)O)CCN(CC(=O)O)CCN(CC(=O)O)CC2)C[C@@H]1C(=O)NCCn1cc(C23CC(C(=O)Nc4nnc(S(N)(=O)=O)s4)(C2)C3)nn1)C(=O)O)(c1ccc(O)cc1)c1ccc(O)cc1.[Lu+3] | > 9.00
CCCCNc1c(F)c(S(N)(=O)=O)c(F)c(F)c1S(=O)(=O)CCOCc1cn(CCNC(=O)[C@H]2CN(C(=O)CN3CCN(CC(=O)O)CCN(CC(=O)O)CCN(CC(=O)O)CC3)CCN2C(=O)C[C@H](NC(=O)[C@@H]2COCCN2C(=O)CCC(C)(c2ccc(O)cc2)c2ccc(O)cc2)C(=O)O)nn1.[Lu+3] | 8.60 to 9.00
NS(=O)(=O)c1nnc(NC(=O)C23CC(c4cn(CCNC(=O)[C@@H]5CN(C(=O)CN6CCN(CC(=O)O)CCN(CC(=O)O)CCN(CC(=O)O)CC6)CCN5C(=O)CNC(=O)C5(C(=O)O)CCN(C(=O)CCC6CCCCCC6)CC5)nn4)(C2)C3)s1.[Lu+3] | > 9.00
NS(=O)(=O)c1nnc(NC(=O)C23CC(c4cn(CCNC(=O)[C@@H]5CN(C(=O)CN6CCN(CC(=O)O)CCN(CC(=O)O)CCN(CC(=O)O)CC6)CCN5C(=O)C[C@H](NC(=O)C[C@H](NC(=O)c5ccc(CC6CC6)cc5)C(=O)O)C(=O)O)nn4)(C2)C3)s1.[Lu+3] | > 9.00
CC(CCC(=O)N[C@@H](CC(=O)N[C@@H](CC(=O)N[C@@H](CCCn1cc(C23CC(C(=O)Nc4nnc(S(N)(=O)=O)s4)(C2)C3)nn1)C(=O)NCCOCCOCCNC(=O)CN1CCN(CC(=O)O)CCN(CC(=O)O)CCN(CC(=O)O)CC1)C(=O)O)C(=O)O)(c1ccc(O)cc1)c1ccc(O)cc1.[Lu+3] | 8.60 to 9.00
NS(=O)(=O)c1nnc(NC(=O)C23CC(c4cn(CCNC(=O)[C@@H]5CN(C(=O)CN6CCN(CC(=O)O)CCN(CC(=O)O)CCN(CC(=O)O)CC6)CCN5C(=O)C[C@H](NC(=O)C[C@H](NC(=O)CCCc5ccc(Cl)cc5)C(=O)O)C(=O)O)nn4)(C2)C3)s1.[Lu+3] | > 9.00
NS(=O)(=O)c1nnc(NC(=O)C23CC(c4cn(CCNC(=O)[C@@H]5CN(C(=O)CN6CCN(CC(=O)O)CCN(CC(=O)O)CCN(CC(=O)O)CC6)CCN5C(=O)C[C@H](NC(=O)C[C@H](NC(=O)c5ccc(C6CC6)cc5)C(=O)O)C(=O)O)nn4)(C2)C3)s1.[Lu+3] | > 9.00

Which pKd value belongs to C[C@H](Nc1c(F)c(S(N)(=O)=O)c(F)c(F)c1S(=O)(=O)CCOCc1cn(CCNC(=O)[C@H]2CN(C(=O)CN3CCN(CC(=O)O)CCN(CC(=O)O)CCN(CC(=O)O)CC3)CCN2C(=O)C[C@H](NC(=O)[C@@H]2COCCN2C(=O)CCCc2ccc(O)cc2)C(=O)O)nn1)C1CCCC1.[Lu+3] ?
> 9.00

GET /values?readout=pKd&item= CC(CCC(=O)N[C@@H](CC(=O)N[C@@H](CC(=O)N1CCN(C(=O)CN2CCN(CC(=O)O)CCN(CC(=O)O)CCN(CC(=O)O)CC2)CC1C(=O)NCCn1cc(C23CCC(C(=O)Nc4nnc(S(N)(=O)=O)s4)(CC2)C3)nn1)C(=O)O)C(=O)O)(c1ccc(O)cc1)c1ccc(O)cc1.[Lu+3] (stereo partly shown)
> 9.00

Given the entry CC(CCC(=O)N[C@@H](CC(=O)N[C@@H](CC(=O)N[C@@H](CCCCn1cc(C23CCC(C(=O)Nc4nnc(S(N)(=O)=O)s4)(CC2)C3)nn1)C(=O)N1CC2(CN(C(=O)CN3CCN(CC(=O)O)CCN(CC(=O)O)CCN(CC(=O)O)CC3)C2)C1)C(=O)O)C(=O)O)(c1ccc(O)cc1)c1ccc(O)cc1.[Lu+3] , report its measured pKd.
> 9.00

// pKd lookup, key: CC(CCC(=O)N[C@@H](CC(=O)N[C@@H](CC(=O)N[C@@H](CCCn1cc(C23CCC(C(=O)Nc4nnc(S(N)(=O)=O)s4)(CC2)C3)nn1)C(=O)NCCOCCOCCNC(=O)CN1CCN(CC(=O)O)CCN(CC(=O)O)CCN(CC(=O)O)CC1)C(=O)O)C(=O)O)(c1ccc(O)cc1)c1ccc(O)cc1.[Lu+3]
> 9.00

Quick one: pKd of NS(=O)(=O)c1nnc(NC(=O)C23CC(c4cn(CCNC(=O)[C@@H]5CN(C(=O)CN6CCN(CC(=O)O)CCN(CC(=O)O)CCN(CC(=O)O)CC6)CCN5C(=O)C[C@H](Nc5ncc(C(=O)NCc6ccc(C(F)F)cc6)cn5)C(=O)O)nn4)(C2)C3)s1.[Lu+3] ?
8.00 to 8.60
